# Test system: LOX IMVI
# measurement-protocol: NCI tumour cell line growth inhibition, 48 h
The source made the active and inactive calls. No stated cut-off is given here; in the data, active = GI50 up to about 1.1 µM and inactive = higher.
# GI50 values compiled below
quantity: GI50

compound	study-system	quantity	reported
COc1nc(N)nc2c1ncn2C1CC(O)C(CO)O1 (stereo not given)	LOX IMVI	GI50	> 100 µM (inactive)
COC1C(O)C(C)OC(O[C@H]2CC[C@@]3(C)C(CC[C@@H]4[C@@H]3CC[C@]3(C)[C@@H](C(C)OC5OC(CO)C(O)C(O)C5O)CC[C@]43O)C2)C1O (stereo not given in full)	LOX IMVI	GI50	> 25 µM (inactive)
N/C(=N/c1ccc(O)cc1)S(=O)(=O)O	LOX IMVI	GI50	> 100 µM (inactive)
O=C(Nc1ccc(Cl)cc1)c1cccc([N+](=O)[O-])c1O	LOX IMVI	GI50	3.74 µM (inactive)
COC(=O)C1=C(C(=O)OC)SC(=C2c3ccsc3-c3sccc32)S1	LOX IMVI	GI50	> 100 µM (inactive)
Nc1c(C(=O)Nc2ccc([As](=O)(O)O)cc2)cnc2nnnn12	LOX IMVI	GI50	> 100 µM (inactive)
c1ccc(-c2nc(-c3ccccc3)c(-c3ccccc3)[nH]2)cc1	LOX IMVI	GI50	> 100 µM (inactive)
O=c1cc(-c2ccccc2)[nH]c2c(Cl)cccc12	LOX IMVI	GI50	9.35 µM (inactive)
O=C1C=C(Nc2ccccc2C(=O)CC(=O)C(=O)Nc2ccc(Cl)cc2)c2ccccc2C1=O	LOX IMVI	GI50	1.93 µM (inactive)
C[C@]12C[C@H](O)[C@H]3[C@@H](CCC4=CC(=O)CC[C@@]43C)[C@@H]1CC[C@@H]2c1csc(-c2ccccc2)n1	LOX IMVI	GI50	> 58.3 µM (inactive)

* * *

# GI50 values compiled below
# Test system: MCF7
# measurement-protocol: NCI tumour cell line growth inhibition, 48 h
Activity calls are given as the source filed them. Rule as the data show it: active = GI50 up to about 1.1 µM and inactive = higher.

compound	GI50
c1ccc2c(c1)CCc1[nH]c3c(c1-2)-c1ccccc1CC3	39.9 µM (inactive)
CN(C)c1ccc(/C=c2/c3ccccc3n3nc4ccccc4c23)cc1	13.8 µM (inactive)
Nc1ccc(I)cn1	> 100 µM (inactive)
CCOC(=O)C1=CN/C(=C(/C)C(=O)OC)SC1C(=O)OCC (centres undefined)	> 93.5 µM (inactive)
CCCCCCc1ccc(C(=O)NO)cc1	59.3 µM (inactive)
CCOC(=O)CCC(C(=O)OCC)n1nc2ccc(Nc3c(C)[n+]([O-])c4cc(F)c(OCC)cc4[n+]3[O-])cc2n1 (centres undefined)	61.2 µM (inactive)
[N-]=[N+]=CC(=O)CCC(=O)N(c1ccccc1)c1ccccc1	> 10 µM (inactive)
COc1ccccc1C(C1=C(O)COC1=O)c1cc2c(cc1OC(C)=O)OCO2 (centres undefined)	> 100 µM (inactive)
O=[N+]([O-])c1ccc(N2N=C(c3ccc4ccccc4c3O)CC2c2ccc(Cl)cc2)c([N+](=O)[O-])c1 (centres undefined)	20.3 µM (inactive)
CCOc1cc(NC(C)=O)ccc1C(=O)N/N=C/c1ccco1	22.3 µM (inactive)
Cc1ccc(/C=C2\CCCC(CN3CCCCC3)C2=O)cc1 (centres undefined)	0.721 µM (active)
CC(=O)OC(C)(C)/N=N/c1ccc(Br)cc1	0.551 µM (active)
CN1CCCN2CCN(C)CCN(CC1)CC2	> 100 µM (inactive)
CC(=O)NNc1nc(C)c(C(=O)NNC(=O)C(=O)Nc2nc3ccc([N+](=O)[O-])cc3s2)s1	31 µM (inactive)
N=C(N)c1ccc(/C=C/c2ccc(C(=N)N)cc2)cc1	96.6 µM (inactive)
N#Cc1ccc(/C=N/NC(=O)CSCC(=O)N/N=C/c2ccc(C#N)cc2)cc1	> 100 µM (inactive)
Cn1c2ccccc2c(=O)c2c(O)cc3c(c21)C1OCC(C)(O)C1O3 (centres undefined)	51.5 µM (inactive)
CCOC(=O)c1nnsc1N/N=C\c1ccc([N+](=O)[O-])cc1	> 100 µM (inactive)
CCN(CC)c1ccc2cc(C(=O)Nc3ccc4[nH]c(C(=O)N5C[C@@H](CCl)c6c5cc(OC(=O)Nc5ccccc5)c5[nH]cc(C)c65)cc4c3)oc2c1	9.25e-05 µM (active)
